Assay: NCI Yeast Anticancer Drug Screen. Data for the bub3 strain (AID 167)
Settings: S. cerevisiae bub3 mutant strain, at 50.0 µM, hits give high values
Compounds without any hit were thinned out: in the full panel of roughly 79,000, 15% have a hit. Where a SMILES comes first, the peptide text is derived from it. [ ]: non-standard residue; d: D form. The star is where a group is joined. Cbz = O=C(OCc1ccccc1)*; Nva = CCC[CH](N)C(=O)O
ENDPOINT: growth inhibition (%)
Answer in %, number only, no unit symbol.

{"COMPOUND": "CCOc1ccc(NC(=O)C(Br)C(Br)C(=O)O)cc1 (stereo unspecified)", "ENDPOINT": "growth inhibition", "EXPERIMENTAL VALUE": 98.5}

Entry CC(C)NNC(N)=O — recorded growth inhibition = 12.4

Entry CCCC(NC(=O)OCc1ccccc1)C(=O)NC(CCSC)C(=O)O (stereo unspecified) (Cbz-[Nva]-Met-OH; configuration not given here) — recorded growth inhibition = -0.85

Entry C[N+](C)(C)CC(=O)N/N=C/c1oc(-c2cccc([N+](=O)[O-])c2)c(-c2cccc([N+](=O)[O-])c2)c1[N+](=O)[O-] — recorded growth inhibition = -19

* * *

This section presents molecules with their documented growth inhibition values.
Assay: NCI Yeast Anticancer Drug Screen. Data for the bub3 strain (AID 167)
Conditions: S. cerevisiae bub3 mutant strain, at 50.0 µM, hits give high values
Compounds without any hit were thinned out: in the full panel of roughly 79,000, 15% have a hit.
Answer in %, number only, no unit symbol.

{"MOLECULE": "C/C(=N\\N)c1ccc(Cl)cc1O", "growth inhibition [%]": 3.5}

Entry CNc1nnnn1-c1ccccc1C — recorded growth inhibition = -4.05

Entry CCOC(=O)C(=CNc1cc(OC)cc2cccnc12)C(=O)OCC — recorded growth inhibition = 16.1

Entry CCCCCCc1cc2c(C)c(C)c(=O)oc2cc1OCCCOc1cc2oc(=O)c(C)c(C)c2cc1CCCCCC — recorded growth inhibition = -11.8

Entry O=C(O)c1cnc(Cl)c(Br)c1 — recorded growth inhibition = -27.1

Entry CCN(CC)CCN(CCN(CC)CC)c1ccc2ccccc2c1 — recorded growth inhibition = 16.2

* * *

Assay: NCI Yeast Anticancer Drug Screen. Data for the mlh1 rad18 strain (AID 175)
Conditions: S. cerevisiae mlh1 rad18 strain growth inhibition; at 50.0 µM; hits give high values
The panel holds about 79,000 compounds, 15% with a hit somewhere; the sample as a whole holds those more often.
This section presents compounds with their documented growth inhibition values.
Answer in %, number only, no unit symbol.

A selection of reference data follows.
{"COMPOUND": "COCC(=O)C(C(C)=O)C(c1ccc(N(C)C)cc1)C(C(C)=O)C(=O)COC (stereo unspecified)", "ENDPOINT": "growth inhibition", "EXPERIMENTAL VALUE": -9.35}
{"COMPOUND": "CCN(CC)CCSc1nnc(-c2cc(OC)c(OC)c(OC)c2)o1", "ENDPOINT": "growth inhibition", "EXPERIMENTAL VALUE": -9.85}
{"COMPOUND": "CC(CS(C)(=O)=O)S(=O)(=O)Cc1ccccc1 (stereo unspecified)", "ENDPOINT": "growth inhibition", "EXPERIMENTAL VALUE": -0.45}
{"COMPOUND": "CC(Cc1ccccc1)c1ccccc1 (stereo unspecified)", "ENDPOINT": "growth inhibition", "EXPERIMENTAL VALUE": 2.1}

Entry CS(=O)(=O)OC[C@@H]1C2CCC(C2)[C@@H]1COS(C)(=O)=O — recorded growth inhibition = -14.2

Entry CC(=O)N(C(C)=O)n1c(Cc2ccc(Cl)cc2)n[nH]c1=O — recorded growth inhibition = -65

* * *

Assay: NCI Yeast Anticancer Drug Screen. Data for the mlh1 rad18 strain (AID 175)
Conditions: S. cerevisiae mlh1 rad18 strain growth inhibition; at 50.0 µM; hits give high values
About 79,000 compounds went through this panel and 15% of them were active in at least one assay; those are over-represented in the sample as a whole.
ENDPOINT: growth inhibition (%)
Answer in %, number only, no unit symbol.

{"MOLECULE": "COc1ccc2nc(C(C)(O)c3ccccc3)ccc2c1 (stereo not given)", "growth inhibition (%)": -29.1}
{"MOLECULE": "c1ccc(C(c2ccccc2)c2cc(-c3cc(C(c4ccccc4)c4ccccc4)[nH]n3)n[nH]2)cc1", "growth inhibition (%)": 6.25}
{"MOLECULE": "CCC(=O)SCC[N+](C)(C)C", "growth inhibition (%)": 4.55}
{"MOLECULE": "C1=C2CCc3ccc(o3)CCC(=C1)O2", "growth inhibition (%)": 1.35}
{"MOLECULE": "COc1ccc(Sc2cccc(Cl)c2)c(C(=O)O)c1", "growth inhibition (%)": 6.5}

Entry Clc1ccccc1CSc1cnnc(Cl)c1SCc1ccccc1Cl — recorded growth inhibition = 21.9

Entry CCCN(CCC)c1ccc(C(=O)c2ccccc2)cc1 — recorded growth inhibition = -6

Entry CCC(Nc1ncnc2nc[nH]c12)C(=O)O (stereo not given) — recorded growth inhibition = 14

Entry c1ccc(-c2cn3c(nc4ccccc43)c(-c3ccccc3)n2)cc1 — recorded growth inhibition = -41.9

Entry COc1ccc(N=Nc2cc(OC)c(N=Nc3c(O)c4ccccc4[nH]c3=O)cc2OC)cc1 — recorded growth inhibition = 17.1

Entry CN(C)Cc1ccc2ccccc2c1CC(O)(c1ccccc1)c1ccccc1 — recorded growth inhibition = 7.35

Entry O=C(O)C1CCCCN1C(=O)c1ccccc1 (stereo not given) — recorded growth inhibition = -15.5

Entry O=C(O)/C=C/c1ccccc1Cl — recorded growth inhibition = -9.9

* * *

This section presents molecules with their documented growth inhibition values.
Assay: NCI Yeast Anticancer Drug Screen. Data for the bub3 strain (AID 167)
Conditions: S. cerevisiae bub3 mutant strain, at 50.0 µM, hits give high values
This is part of a sample that, as a whole, favours compounds with a hit. Of some 79,000 tested, about 15% had one in any assay.
Answer in %, number only, no unit symbol.

{"MOLECULE": "CC(=O)n1ccc(=O)[nH]c1=O", "UNIT": "%", "growth inhibition": -11.9}
{"MOLECULE": "N#C/C(=C\\c1ccc(Cl)cc1)C(=O)c1ccccc1", "UNIT": "%", "growth inhibition": 6.95}
{"MOLECULE": "CS(=O)(=O)NCC1OC(n2cnc3c(N)ncnc32)C(O)C1O (stereo not drawn)", "UNIT": "%", "growth inhibition": 30.5}
{"MOLECULE": "CCOC(=O)C(C#N)C(=O)c1ccccc1-c1ccccc1[N+](=O)[O-] (stereo not drawn)", "UNIT": "%", "growth inhibition": -13.2}

Entry Clc1ccc(C(CI)c2ccccc2Cl)cc1 (stereo not drawn) — recorded growth inhibition = 27.9

Entry CN=C(c1ccccc1)N(O)c1ccccc1 — recorded growth inhibition = -1.65

Entry NC(=O)CC(N)C(=O)OCc1ccc([N+](=O)[O-])cc1 (stereo not drawn) — recorded growth inhibition = -5.95

Entry Cc1onc(-c2ccccc2Cl)c1C(=O)NCC(=O)O — recorded growth inhibition = 12.7

Entry C=C(C)C(=O)OCCN(CC)CC — recorded growth inhibition = 11.4

* * *

Experiment: NCI Yeast Anticancer Drug Screen. Data for the mlh1 rad18 strain (AID 175)
Details: S. cerevisiae mlh1 rad18 strain growth inhibition; at 50.0 µM; hits give high values
The panel holds about 79,000 compounds, 15% with a hit somewhere; the sample as a whole holds those more often. The source made the active and inactive calls. Rule as the data show it: active = growth inhibition above about 70%; inactive = the rest.
This section presents molecules with their documented growth inhibition values.

Entry CCNC(=S)OC1CCC2(C)C(=CCC3C2CCC2(C)C(C(C)CCC(CC)C(C)C)CCC32)C1 (configuration not stated) — recorded growth inhibition = -23.8% (inactive)

Entry CC(CN(C)C)N(C)C (configuration not stated) — recorded growth inhibition = 0.15% (inactive)

Entry NC(=O)C[n+]1cccc(C(=O)Nc2ccccc2)c1 — recorded growth inhibition = 10.7% (inactive)

Entry Nc1cccc2sccc12 — recorded growth inhibition = -3.35% (inactive)

Entry COc1cc(CSCC(=O)O)ccc1O — recorded growth inhibition = -23.8% (inactive)

Entry COC(=O)c1nnn(-c2ccccc2C(C)C)c1C(=O)c1ccccc1 — recorded growth inhibition = 24.5% (inactive)

Entry CC1CCOC(C)(Cc2ccccc2)O1 (configuration not stated) — recorded growth inhibition = -10.9% (inactive)

Entry CC(C)CC1CC(=O)NC1C(=O)O (configuration not stated) — recorded growth inhibition = -28.9% (inactive)

Entry O=C(NC(=S)Nc1ccc(Cl)c(Cl)c1)c1cccc([N+](=O)[O-])c1 — recorded growth inhibition = 5.7% (inactive)

Entry CN(C)c1cc[n+](-c2c([O-])c3ccccc3n(-c3ccccc3)c2=O)cc1 — recorded growth inhibition = 21% (inactive)

Entry COc1cc2c(cc1OC)-c1cc3ccc(OC)c(OC)c3c[n+]1CC2 — recorded growth inhibition = -4.35% (inactive)

Entry CC(=O)Nc1ccc(-c2cn3ccccc3n2)cc1 — recorded growth inhibition = 21.8% (inactive)

The reported measurements were obtained from PubChem BioAssay (NCI).
